procedure summary: qHTS RealTime-Glo MT Cell Viability Assay in HEK293 cells - 16 hour (AID 1224872); further: nearly all actives have a fitted effect of over 50% in size
measurement parameters: RealTime-Glo luminescence; series mostly up to 76.8 µM
Records with an inconclusive call do not appear. Active and inactive are the calls of the source. The call rests on the fitted dose curve; in most records, active means well fitted cell-killing curve with a large enough effect in the repeat runs; inconclusive means weak or mixed curves, or effect the other way; inactive means flat fitted curve, though single readings scatter.
Give your call using only these classes: active, inactive

Prompt: // param item: CN1C(=O)[C@@H](NC(=O)c2cc3ccccc3[nH]2)N=C(c2ccccc2)c2ccccc21 ; yields the recorded call
Response: inactive

Prompt: // param item: CC(=O)[O-].CC(=O)[O-].[Co+2] ; yields the recorded call
Response: inactive

Prompt: // param item: CC(=O)[O][Sn]([c]1ccccc1)([c]1ccccc1)[c]1ccccc1 ; yields the recorded call
Response: active

Prompt: // param item: N#CSCc1ccccc1 ; yields the recorded call
Response: inactive

Prompt: // param item: CCC[CH2][Sn]([CH2]CCC)([CH2]CCC)[CH2]CCC ; yields the recorded call
Response: active

Prompt: // param item: CC(O)C(=O)[O][Hg][c]1ccccc1 (stereo unspecified) ; yields the recorded call
Response: active

====

procedure summary: qHTS assay to identify small molecule antagonists of the estrogen related receptor signaling pathway with the pleiotropic PPARgamma coactivator (PGC) from Tox21 10K library - cell viability counter screen (AID 1224840); further: nearly all actives have a fitted effect of over 40% in size
measurement parameters: PGC/ERR reporter cells viability, CellTiter-Fluor, 17.5 h; series mostly up to 92.4 µM
Inconclusive results are not listed. The source made the active and inactive calls. The call rests on the fitted dose curve; in most records, active means well fitted cell-killing curve with a large enough effect in the repeat runs (not every such curve was filed as active); inconclusive means weak or mixed curves, or effect the other way; inactive means no such curve, though single readings can be large or run the other way.
Give your call using only these classes: active, inactive

Prompt: // param item: CCN(CC)C(=O)N[C@@H]1C=C2c3cccc4[nH]cc(c34)C[C@@H]2N(C)C1 ; yields the recorded call
Response: inactive

Prompt: // param item: Fc1ccc(C(OCCN2CCN(CCCc3ccccc3)CC2)c2ccc(F)cc2)cc1 ; yields the recorded call
Response: active

Prompt: // param item: CN(C)c1ccc(N)cc1 ; yields the recorded call
Response: active

====

procedure summary: qHTS assay to identify small molecule agonists of the peroxisome proliferator-activated receptor delta (PPARd) signaling pathway - cell viability counter screen (AID 743211); further: nearly all actives have a fitted effect of over 55% in size
measurement parameters: PPARd-bla HEK293H viability, CellTiter-Glo luminescence, 17 h; series mostly up to 62.6 µM
Records with an inconclusive call do not appear. Calls of active or inactive are those of the source. The call rests on the fitted dose curve; in most records, active means well fitted cell-killing curve with a large enough effect in the repeat runs; inconclusive means weak or mixed curves; inactive means no such curve, though single readings can be large or run the other way.
Give your call using only these classes: active, inactive

Prompt: // param item: BrCCCBr ; yields the recorded call
Response: inactive

Prompt: // param item: CN1[C@@H]2CC[C@H]1CC(O)C2 (some centres not stated) ; yields the recorded call
Response: inactive

Prompt: // param item: ClCBr ; yields the recorded call
Response: inactive

Prompt: // param item: C#CCO ; yields the recorded call
Response: inactive

Prompt: // param item: CC(C)=CC1C(C(=O)OC(C#N)c2cccc(Oc3ccccc3)c2)C1(C)C (configuration not stated) ; yields the recorded call
Response: inactive

Prompt: // param item: CCN(CC)CCN1C(=O)CN=C(c2ccccc2F)c2cc(Cl)ccc21 ; yields the recorded call
Response: inactive

Prompt: // param item: CCN1CCC2(CC1)COc1cc3c(cc12)N(C(=O)c1ccc(-c2ccc(-c4nnc(C)o4)cc2C)cc1)CC3 ; yields the recorded call
Response: active

Prompt: // param item: C=CC(=O)[O][Sn]([CH2]CCC)([CH2]CCC)[CH2]CCC ; yields the recorded call
Response: active

Prompt: // param item: Cc1ccc2cc3c(ccc4ccccc43)c3c2c1CC3 ; yields the recorded call
Response: inactive

Prompt: // param item: CCCN ; yields the recorded call
Response: inactive

Prompt: // param item: C[C@]12CC[C@H]3[C@@H](CCC4=CC(=O)CC[C@@H]43)[C@@H]1CC[C@@H]2OC(=O)CCc1ccco1 ; yields the recorded call
Response: active

Prompt: // param item: CC(C)C(Nc1ccc(C(F)(F)F)cc1Cl)C(=O)OC(C#N)c1cccc(Oc2ccccc2)c1 (configuration not stated) ; yields the recorded call
Response: inactive

Prompt: // param item: c1cc[n+]2c(c1)-c1cccc[n+]1CC2 ; yields the recorded call
Response: inactive

Prompt: // param item: CC(=O)[O-].CC(=O)[O-].CC(=O)[O-].[Cr+3] ; yields the recorded call
Response: inactive

Prompt: // param item: CC(Cl)CCl (configuration not stated) ; yields the recorded call
Response: inactive

Prompt: // param item: C1=CCC=C1 ; yields the recorded call
Response: inactive

Prompt: // param item: Nc1ccccc1-c1ccccc1 ; yields the recorded call
Response: inactive

Prompt: // param item: C[C@@H]1CC2=CC(=O)CC[C@@H]2[C@H]2CC[C@@]3(C)[C@@H](CC[C@]3(C)O)[C@@H]21 ; yields the recorded call
Response: inactive

Prompt: // param item: CCN(CC)Cc1nccn1-c1ccc([N+](=O)[O-])cc1C(=O)c1ccccc1Cl ; yields the recorded call
Response: inactive

Prompt: // param item: CC1CCCC1 ; yields the recorded call
Response: inactive

Prompt: // param item: COc1nc(C)nc(NC(=O)NS(=O)(=O)c2ccccc2Cl)n1 ; yields the recorded call
Response: inactive

Prompt: // param item: CN1C(=O)[C@@H](NC(=O)c2cc3ccccc3[nH]2)N=C(c2ccccc2)c2ccccc21 ; yields the recorded call
Response: inactive

Prompt: // param item: CC(O)C(=O)[O][Hg][c]1ccccc1 (configuration not stated) ; yields the recorded call
Response: active

Prompt: // param item: CC(=O)[O-].CC(=O)[O-].O.O.O.[Pb+2] ; yields the recorded call
Response: inactive

Prompt: // param item: O=S(=O)(O)F ; yields the recorded call
Response: inactive

Prompt: // param item: C#CC1(O)CCCCC1 ; yields the recorded call
Response: inactive

Prompt: // param item: O=c1[nH]c(Cl)c(Cl)cc1Cl ; yields the recorded call
Response: inactive

Prompt: // param item: N#CCCl ; yields the recorded call
Response: inactive

Prompt: // param item: O=C(N[C@@H]1N=C(c2ccccc2F)c2cccc3c2N(CC3)C1=O)c1cc2ccccc2[nH]1 ; yields the recorded call
Response: inactive

Prompt: // param item: O.O.O.O.O.O.O=S(=O)([O-])[O-].[Ni+2] ; yields the recorded call
Response: inactive

Prompt: // param item: CC(Cc1ccc(O)cc1)NCC(O)c1cc(O)cc(O)c1 (configuration not stated) ; yields the recorded call
Response: inactive

Prompt: // param item: c1csc(-c2ccc(-c3cccs3)s2)c1 ; yields the recorded call
Response: inactive

====

procedure summary: A CellTox Green Cytotoxicity Assay to monitor cytotoxicity in HepG2 cells - 16 hour (AID 1224876); further: nearly all actives have a fitted effect of over 45% in size
measurement parameters: CellTox Green fluorescence; series mostly up to 76.8 µM
Text: National Center for Advancing Translational Sciences [NCATS] NIH Chemical Genomics Center [NCGC] U.S. Environmental Protection Agency [EPA] National Institutes of Environmental Health Sciences [NIEHS] National Toxicology Program [NTP] Cell-based models are critical for drug discovery. […] Viable cells produce no appreciable increases in fluorescence. Therefore, the fluorescence signal produced by the binding interaction with dead cell DNA is proportional to cytotoxicity. […]
Results filed as inconclusive are left out. Active and inactive are the calls of the source. Calls come from the whole dose curve; as a rule, active = well fitted activation curve with a large enough effect in the repeat runs; inconclusive = weak or mixed curves; inactive = flat fitted curve, though single readings scatter.
Give your call using only these classes: y for active, n for inactive

Prompt: // param item: C=C(C)C(=O)[O][Sn]([CH2]CCC)([CH2]CCC)[CH2]CCC ; yields the recorded call
Response: y

Prompt: // param item: O=c1[nH]c(Cl)c(Cl)cc1Cl ; yields the recorded call
Response: n

Prompt: // param item: C[C@]12CC[C@H]3[C@@H](CCC4=CC(=O)CC[C@@H]43)[C@@H]1CC[C@@H]2OC(=O)CCc1ccco1 ; yields the recorded call
Response: n

Prompt: // param item: CCN(CC)CCN1C(=O)CN=C(c2ccccc2F)c2cc(Cl)ccc21 ; yields the recorded call
Response: n

Prompt: // param item: Oc1ccc([C@H]2CNCc3c2ccc(O)c3O)cc1O ; yields the recorded call
Response: y

Prompt: // param item: CNC(=O)Oc1cc(C)cc(C(C)C)c1 ; yields the recorded call
Response: n

Prompt: // param item: O=S1(=O)OCC2C(CO1)C1(Cl)C(Cl)=C(Cl)C2(Cl)C1(Cl)Cl (stereo not given) ; yields the recorded call
Response: n

Prompt: // param item: [Cl][Hg][c]1ccccc1 ; yields the recorded call
Response: y

Prompt: // param item: [O]=[Cr](=[O])([OH])[O][Cr](=[O])(=[O])[OH] ; yields the recorded call
Response: n

Prompt: // param item: ClC(Cl)C(Cl)(Cl)Cl ; yields the recorded call
Response: n

====

procedure summary: qHTS assay to identify small molecule agonists of the estrogen related receptor (ERR) signaling pathway from Tox21 library (AID 1224849); further: nearly all actives have a fitted effect of over 15% in size
measurement parameters: ERR reporter cell line, ONE-Glo luciferase, 18 h; at 92.4 µM (top of the series) unless noted
The source made the active and inactive calls. The call rests on the fitted dose curve.
Give your call using only these classes: true (1) (active), false (0) (inactive)

Prompt: // param item: Oc1cc(Cl)c(Cl)c(Cl)c1Cl ; yields the recorded call
Response: false (0)

Prompt: // param item: COP(=O)(OC)Oc1ccc([N+](=O)[O-])cc1 ; yields the recorded call
Response: false (0)

Prompt: // param item: Brc1ccc(Oc2ccc(Br)cc2Br)c(Br)c1 ; yields the recorded call
Response: false (0)

Prompt: // param item: Cc1cc(C2CC2)nc(Nc2ccccc2)n1 ; yields the recorded call
Response: true (1)

Prompt: // param item: CCC(C)Nc1c([N+](=O)[O-])cc(C(C)(C)C)cc1[N+](=O)[O-] (stereo not given) ; yields the recorded call
Response: false (0)

Prompt: // param item: CN=C=O ; yields the recorded call
Response: false (0)

Prompt: // param item: ClCBr ; yields the recorded call
Response: false (0)

Prompt: // param item: Nc1ccccc1-c1ccccc1 ; yields the recorded call
Response: false (0)

Prompt: // param item: Cc1cc2c3c(c1)C(c1ccccc1)=N[C@@H](NC(=O)c1ccncc1)C(=O)N3CC2 ; yields the recorded call
Response: false (0)

Prompt: // param item: COP(=S)(OC)Oc1nc(Cl)c(Cl)cc1Cl ; yields the recorded call
Response: false (0)

Prompt: // param item: CNC(=O)O/N=C(\C)C(C)S(C)(=O)=O (stereo not given) ; yields the recorded call
Response: false (0)

Prompt: // param item: O=C(CCCCl)c1ccc(F)cc1 ; yields the recorded call
Response: false (0)

Prompt: // param item: Nc1ccc(Cl)cc1C(=O)c1ccccc1F ; yields the recorded call
Response: false (0)

Prompt: // param item: COc1cnc(OC)n2nc(NS(=O)(=O)c3c(OCC(F)F)cccc3C(F)(F)F)nc12 ; yields the recorded call
Response: false (0)

Prompt: // param item: c1ccc2c(c1)cc1ccc3cccc4ccc2c1c34 ; yields the recorded call
Response: true (1)
